From various publications: pIC50 for Proto-oncogene tyrosine-protein kinase receptor Ret (Homo sapiens).
pIC50: −log10 of the molar value.

Cn1ccc(-c2cc(-c3ccc(N4C[C@@H]5C[C@@](C)(NS(=O)(=O)c6c(F)cccc6Cl)C[C@@H]5C4)nc3)c3c(C#N)cnn3c2)n1: ≥ 8.00

Sample CCOc1cc(-c2ccc(N3C[C@H]4CN(C(=O)c5ncccc5Cl)C[C@H]4C3)nc2)c2c(C#N)cnn2c1 — what was its pIC50?
≥ 8.00

Another molecule to check: COc1ccc(C(=O)N[C@@]2(C)C[C@H]3CN(c4ccc(-c5cc(OCC(C)(C)O)cn6ncc(C#N)c56)cn4)C[C@H]3C2)cn1
7.30 to 8.00

Do the same for CS(=O)(=O)c1cccc(-c2cnc3[nH]cc(C(=O)c4cccc(O)c4F)c3c2)c1 please
≥ 5.00

Now give it for COCc1cccc2[nH]c(-c3n[nH]c4ncc(-c5cncc(CN(C)C)c5C)cc34)nc12 too.
< 5.00

Note, next up: Cc1cc(Nc2cc(C)[nH]n2)nc([C@H]2C[C@H](C(=O)N[C@@H](C)c3ccc(-n4cc(F)cn4)nc3)C2)c1
> 9.00
